system.under.test: Short transient receptor potential channel 4 (Mus musculus) (UniProt Q9QUQ5)
Sequence (Q9QUQ5 whole entry, looked up): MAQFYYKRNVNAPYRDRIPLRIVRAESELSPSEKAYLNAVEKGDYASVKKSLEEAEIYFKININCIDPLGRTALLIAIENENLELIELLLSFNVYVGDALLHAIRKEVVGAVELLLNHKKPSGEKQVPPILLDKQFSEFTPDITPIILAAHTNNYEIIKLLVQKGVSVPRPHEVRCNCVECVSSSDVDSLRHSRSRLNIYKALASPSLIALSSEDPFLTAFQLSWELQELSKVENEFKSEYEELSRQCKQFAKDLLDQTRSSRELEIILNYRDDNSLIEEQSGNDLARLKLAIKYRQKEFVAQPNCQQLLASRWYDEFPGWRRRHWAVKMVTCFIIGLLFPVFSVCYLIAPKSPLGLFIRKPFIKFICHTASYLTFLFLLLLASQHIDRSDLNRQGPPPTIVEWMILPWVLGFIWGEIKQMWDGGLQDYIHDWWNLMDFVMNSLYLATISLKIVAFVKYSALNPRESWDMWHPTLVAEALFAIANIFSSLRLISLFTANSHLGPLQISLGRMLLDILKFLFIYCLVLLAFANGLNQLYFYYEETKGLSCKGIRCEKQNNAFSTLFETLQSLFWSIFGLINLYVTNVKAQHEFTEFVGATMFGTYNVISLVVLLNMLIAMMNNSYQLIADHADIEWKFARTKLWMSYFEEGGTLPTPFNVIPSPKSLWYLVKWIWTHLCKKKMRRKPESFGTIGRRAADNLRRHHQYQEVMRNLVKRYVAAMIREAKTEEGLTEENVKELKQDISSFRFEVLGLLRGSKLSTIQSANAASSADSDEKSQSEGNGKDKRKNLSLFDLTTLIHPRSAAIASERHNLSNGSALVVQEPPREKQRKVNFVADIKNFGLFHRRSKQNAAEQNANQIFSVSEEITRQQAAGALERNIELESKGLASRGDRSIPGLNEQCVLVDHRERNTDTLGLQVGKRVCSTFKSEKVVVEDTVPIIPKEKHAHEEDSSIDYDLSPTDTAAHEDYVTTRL
method.summary: blockers of DAMGO-evoked TRPC4 calcium flux – cell-based, Fluo4, HEK293 TRPC4beta/mu-opioid, confirmation (AID 2636)
condition.set: at 10 µM
Activity calls are given as the source filed them.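 Rule for the calls: active = calcium signal cut by more than 3 SD below the full-agonist control yet still positive, in both repeats and the earlier primary screen; inactive = the rest.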
The reply should name one outcome from True for active, False for inactive

For CCOC(=O)c1c(C)oc2ccc(O)c(CN3CCCCC3)c12 , what call appears in the results of this test?
False

Next molecule up: CCN1CCN(c2ccc(NC(=O)CCc3c(C)nc4c(-c5ccc(F)cc5)c(C)nn4c3C)cc2)CC1
False

Next molecule up: CCN(Cc1ccccc1)S(=O)(=O)c1ccc(C(=O)N(CCCN(C)C)c2nc3c(F)cccc3s2)cc1
False

Next molecule up: C#CC[N+]1(CC#Cc2cccc3ccccc23)CCOCC1
False

Next molecule up: Cn1ncc(C#N)c1/N=C/N(Cc1ccccc1)Cc1ccccc1
False

Next molecule up: c1ccc(Cn2nnnc2C(c2cccnc2)N2CCN(C3CCCCC3)CC2)cc1 (stereo unspecified)
False

Next molecule up: Clc1ccc(OCCn2ccnc2)c(Br)c1
False
